- Test system: Malme-3M
- test.method.notes: NCI tumour cell line growth inhibition, 48 h
Calls of active or inactive are those of the source. No stated cut-off is given here; in the data, active = GI50 up to about 1.1 µM and inactive = higher.
Classes used: true (active), false (inactive)

molecule	qualitative.label
COc1ccc(/N=[N+](\[O-])c2ccc(OC)cc2)cc1	false
Cc1ccc(C)c(NC(=O)CC/C(=N\NC(=O)C(N)=O)C(C)C(=O)c2ccc(O)cc2)c1 (stereo not given)	false
COc1cc(/C=C/C(=O)Oc2ccc(NC(C)=O)cc2)ccc1C(=O)OCc1ccccc1	false
COc1ccc(NC(=O)CC(=O)n2nc(C)c(/N=N/c3ccccc3C(=O)O)c2C)cc1	false
Cc1ccccc1NC(=O)C(=O)C1CN(c2ccccc2)N=C1N (stereo not given)	false
Cc1ccc2[nH]c3c(c2c1)C1CCC(C(C)(C)C)CC1C1C(=O)N(c2ccc(Oc4ccccc4)cc2)C(=O)C31 (stereo not given)	false
CCCCCCCCCC[C@@H](O)[C@H]1CC[C@@H]([C@H]2CC[C@H]([C@H](O)CCCCCCCCCC[C@@H]3CC(CC(C)=O)C(=O)O3)O2)O1 (stereo not given in full)	false
C=CCn1c(=S)sc2c(O)ncnc21	false
Cc1oc(N)c(S(=O)(=O)c2cc3ccccc3[n+]([O-])c2N)c1C	false
C/C=C/[C@@H](C(=O)OC)N1C(=O)c2ccccc2[C@H]1O	false
COCOCC[C@@H]1CC=CC(NC(=O)OCc2ccccc2)C1/C=C/C(=O)CCC1OCCO1 (stereo not given in full)	false
CC12CC(c3ccccc3O1)C(C(=O)Nc1nccs1)C(=O)N2 (stereo not given)	false
Sc1nn2c(Cc3ccccc3)nnc2s1	false
CCCCC1Cc2cc(O)ccc2-c2nc3cc(O)ccc3n21.CCCCC1Cc2cc(O)ccc2-c2nc3ccc(O)cc3n21 (stereo not given)	false
CCN(CC)C(=S)N/N=C(\C)c1cccc(C)n1	true
CC(=O)O[C@H]1CC[C@@]2(C)C(=CC[C@@H]3C2CC[C@]2(C)C(=O)NC(=O)CC32)C1 (stereo not given in full)	false
C=C1C(=O)O[C@@H]2/C=C(C)/C=C\[C@@H]3O[C@@]3(C)C[C@@H](O)C12 (stereo not given in full)	false
Cc1c(CNc2ccc(C(=O)NC(CCCNC(=O)c3ccccc3C(=O)O)C(=O)O)cc2)cnc2nc(N)nc(N)c12 (stereo not given)	true
CC(=O)O[C@H]1[C@H](OC(=O)CC(C)(O)CC(=O)O)C[C@]2(C)C3=C(CCC2C1(C)C)[C@]1(C)CC[C@H]([C@H]2CC[C@H](C(C)(C)O)OC2O)[C@@]1(C)[C@@H](O)C3 (stereo not given in full)	false
COC(=O)c1cc2c(cc1CC(Cc1ccc3c(c1)CCCC3)C(=O)OC)CCCC2 (stereo not given)	false
C[N+]1([O-])CCC(O)(C2CC2)CC1 (stereo not given)	false
O=c1c2cc(I)ccc2nc(-c2cccs2)n1-c1ccc(O)cc1	false
NC1=NS(=O)(=O)Nc2nc(-c3ccc(Cl)cc3)c(-c3ccc(Cl)cc3)nc21	false
CC1(C)c2ccccc2C(C)(C)C(C(=O)Nc2ccccc2)C1C(=O)O (stereo not given)	false
CN(c1nc(=[N+](C)C)ss1)C1CCCCC1	false
CN(CCN1C(=O)c2cccc3cccc(c23)C1=O)CCN1C(=O)c2cccc3cccc(c23)C1=O	false
Clc1cc2n[se]nc2cc1Cl	false
CCC1=CCN(c2cc(C)ccn2)OC1c1ccc(OC)cc1 (stereo not given)	false
C[N+](C)(N)c1nc(N)c(C#N)c(C#N)c1C#N	false
O=c1c2sc3ccccc3sc=2c(=O)c2c(Cl)c(Cl)c(Cl)c(Cl)c12	false
O=S(=O)(c1ccc(Br)cc1)n1c2ccc(Br)cc2c2nc3ccccc3nc21	false
CC(=O)NC1=C(NCC(C)(C)C)C(=O)c2ccccc2C1=O	false
O=C1CCC(=O)c2ccccc2N1	false
Cc1ccc(C2=C(c3ccccc3)C(Br)(c3ccc(C)cc3)C(c3ccccc3)=C2c2ccc(C)cc2)cc1	false
C=CC(Br)(CBr)CCC(Cl)C(C)C (stereo not given)	false
O=C(NCCCCCCCCCCCCNC(=O)Nc1cccc2ccccc12)Nc1cccc2ccccc12	false
Cn1cc(C(=O)c2nccc3c2cnc2ccccc23)ccc1=O	false
O=C(NCCCCCCCCNC(=O)c1cnc2ccccc2n1)c1cnc2ccccc2n1	false
O=P(O)(OCC(O)O)OCC(O)O	false
CC(C)=CCC/C(C)=C/CC/C(C)=C/CC/C(=C/CC/C(C)=C\CC/C(C)=C/CC/C(C)=C/CC/C(C)=C/Cc1cc(O)ccc1O)CO	false
